meta.source: ChEMBL document CHEMBL1201862

System: TK-10
Assay: NCI tumour cell line growth inhibition, 48 h
Active and inactive are the calls of the source. Cut-off read from the data, not from the text of the source: active = GI50 up to about 1.1 µM and inactive = higher.
property label: GI50

Some entries whose results are on file:
INSERT INTO assay_data (compound, result) VALUES
  ('NCCOCC(N)C(=O)O (stereo unspecified)', '> 100 µM (inactive)'),
  ('O=c1c2c(no[n+]2[O-])c2ccccc2n1-c1ccccc1', '17.3 µM (inactive)'),
  ('COC1OC2COC(C)(C)OC2C(OC(C)=O)C1NC(=O)N(CCCl)N=O (stereo unspecified)', '> 100 µM (inactive)'),
  ('COC(=O)c1ccc(-c2nc(C#N)c(N)o2)cc1', '> 100 µM (inactive)'),
  ('CC(=O)OCC1C(=O)OCC1C(=O)N1Cc2cc3ccccc3nc2C1 (stereo unspecified)', '1.61 µM (inactive)');

Pending compound:
Simply: `COCc1cc2c(cc1/C(=C/[N+](=O)[O-])CS(=O)(=O)c1ccccc1)OCO2` , TK-10, GI50 = > 100 µM (inactive)

----------
System: A498
Assay: NCI tumour cell line growth inhibition, 48 h
Active and inactive are the calls of the source. Cut-off read from the data, not from the text of the source: active = GI50 up to about 1.1 µM and inactive = higher.
property label: GI50

Some entries whose results are on file:
INSERT INTO assay_data (molecule, result) VALUES
  ('CCOC(OC1=C(C#N)CCCC1)C(C)[Se]c1ccccc1 (stereo unspecified)', '> 100 µM (inactive)'),
  ('NC1=C(c2nc(-c3ccccc3)cs2)C(c2ccco2)c2c(c3ccccc3oc2=O)O1 (stereo unspecified)', '> 100 µM (inactive)'),
  ('COc1cc(C2c3cc4c(cc3OC3(OC)COC(=O)C23)OCO4)cc(OC)c1OC(C)=O (stereo unspecified)', '3.27 µM (inactive)'),
  ('COC(=O)NN=C(c1ccc(Cl)cc1)c1ccc(Cl)cc1', '17.9 µM (inactive)'),
  ('CC(C)=CC(=O)N(C)C1C2CN3CCC(O2)C13 (stereo unspecified)', '> 100 µM (inactive)');

Simply: `COC(=O)c1cc2c(c(C(=O)OC)c1O)C(=O)C=CC2=O` , A498, GI50 = > 41.1 µM (inactive)

Simply: `O=C1C=CC(=O)c2cc(Sc3ccccc3)c(=O)ccc21` , A498, GI50 = 16.2 µM (inactive)

Simply: `O=C1/C(=N\O)S(=O)(=O)c2ccccc21` , A498, GI50 = > 100 µM (inactive)

----------
System: NCI-H23
Assay: NCI tumour cell line growth inhibition, 48 h
Calls of active or inactive are those of the source. Rule as the data show it: active = GI50 up to about 1.1 µM and inactive = higher.
Thanks in advance; please answer with one of these: active, inactive

Qu. Fill in: this test's call for `Cn1c(=O)nc2n(-c3ccc(Cl)cc3)c(-c3ccccc3)c(-c3ccccc3)nc-2c1=O` is ___
Ans. inactive

Qu. Fill in: this test's call for `SC1=Nc2ccccc2-c2nc(-c3ccccc3)cc(-c3ccc(Br)cc3)c2C1` is ___
Ans. inactive

Qu. Fill in: this test's call for CCOC12SC(Nc3ccc(C)cc3)=NN1C(=S)N(C)N=C2C (stereo unspecified) is ___
Ans. inactive

Qu. Fill in: this test's call for `COc1cccc(NC(=O)/C(Cc2nc3ccccc3nc2C)=N/NC(=O)C[n+]2ccccc2)c1` is ___
Ans. inactive

Qu. Fill in: this test's call for N#C[C@H](OC1OC(COC2OC(CO)C(O)C(O)C2O)C(O)C(O)C1O)c1ccccc1 (stereo partly specified) is ___
Ans. inactive

Qu. Fill in: this test's call for `CCOC(=O)/C(=C\NC(N)=S)C(=O)c1ccccc1` is ___
Ans. inactive

Qu. Fill in: this test's call for CC(C)CC(NC=O)C(=O)NC(Cc1ccccc1)NC(=O)CNC(=O)C(C)NC(=O)C(N)Cc1ccc(O)cc1 (stereo unspecified) is ___
Ans. inactive

Qu. Fill in: this test's call for `Cc1cc2c(c3nocc13)C(=O)c1ccccc1C2=O` is ___
Ans. inactive

Qu. Fill in: this test's call for CC1(C)c2ccccc2C(O)C12CCC(=O)CC2 (stereo unspecified) is ___
Ans. inactive

Qu. Fill in: this test's call for `Cc1noc2cccc(OCc3ccccc3)c12` is ___
Ans. inactive

Qu. Fill in: this test's call for `C/C(=N/NC(=S)N1CCCCC1)c1ccccc1O` is ___
Ans. inactive

Qu. Fill in: this test's call for COC(=O)CCN1CCN(CCO)CC1C (stereo unspecified) is ___
Ans. inactive

Qu. Fill in: this test's call for CCCCCC(C)SC1(C(=O)OC)CC(OC(C)=O)C(NC(C)=O)C([C@H](OC(C)=O)[C@@H](COC(C)=O)OC(C)=O)O1 (stereo partly specified) is ___
Ans. inactive

Qu. Fill in: this test's call for COc1ccc(N[S+]([O-])CCc2ccccc2)cc1 (stereo unspecified) is ___
Ans. inactive

Qu. Fill in: this test's call for `COC(=O)C1=C(CCCCO[Si](C)(C)C(C)(C)C)NC(=O)N2[C@H](CCOCc3ccccc3)CC[C@@H]12` is ___
Ans. inactive

Qu. Fill in: this test's call for `O=C(O)Cn1ncn(NC(=O)Cc2ccccc2)c1=S` is ___
Ans. inactive

Qu. Fill in: this test's call for `c1ccc(C2(c3ccccc3)S/C(=C3/SC(c4ccccc4)(c4ccccc4)c4ccccc43)c3ccccc32)cc1` is ___
Ans. inactive

Qu. Fill in: this test's call for `CCOC(=O)C(=Cc1cccnc1C)C(=O)OCC` is ___
Ans. inactive

Qu. Fill in: this test's call for C[C@@H]1CC[C@@]2(C)[C@H](C)/C(=C\COC(=O)/C=C/c3ccc(O)c(O)c3)CC[C@@]12C [NAVICULYL CAFFEATE] is ___
Ans. inactive

Qu. Fill in: this test's call for CC1=Nc2c(O)nc(S)nc2NC(c2c(Cl)cccc2Cl)C1 (stereo unspecified) is ___
Ans. inactive

----------
Tested on: RXF 631
Experiment: NCI tumour cell line growth inhibition, 48 h
The source made the active and inactive calls. No stated cut-off is given here; in the data, active = GI50 up to about 1.1 µM and inactive = higher.
Each item that follows carries a reported GI50.

Some entries whose results are on file:
INSERT INTO results (molecule, measurement_target, property_label, result) VALUES
  ('COc1ccc2cc1Oc1ccc(cc1)C[C@@H]1c3cc(c(OC)cc3CCN1C)Oc1c(OC)c(OC)cc3c1[C@@H](C2)N(C)CC3 [PHAEANTHINE]', 'RXF 631', 'GI50', '14.1 µM (inactive)'),
  ('N/N=c1\c2ccccc2c2cc3c(cc12)/c(=N/N)c1ccccc13', 'RXF 631', 'GI50', '> 100 µM (inactive)'),
  ('CCOC(=O)C(=Cc1cccnc1C)C(=O)OCC', 'RXF 631', 'GI50', '11.9 µM (inactive)'),
  ('O=C1c2ccccc2-c2cccc3ccc(Cc4ccccc4)c1c23', 'RXF 631', 'GI50', '> 100 µM (inactive)'),
  ('Cn1c(=O)nc2n(-c3ccc(Cl)cc3)c(-c3ccccc3)c(-c3ccccc3)nc-2c1=O', 'RXF 631', 'GI50', '28.3 µM (inactive)');

Pending molecule:
For record `Cc1cc2c(c3nocc13)C(=O)c1ccccc1C2=O` the listed GI50 is > 100 µM (inactive)

----------
Test system: UACC-62
Experiment: NCI tumour cell line growth inhibition, 48 h
Calls of active or inactive are those of the source. No stated cut-off is given here; in the data, active = GI50 up to about 1.1 µM and inactive = higher.
Thanks in advance; please answer with one of these: active, inactive

Here's what some known entries look like.
INSERT INTO measurements (molecule, qualitative_label) VALUES
  ('O=C(CON1C(=O)c2ccccc2C1=O)c1ccccc1', 'inactive'),
  ('CCCCC1C=Cn2c(=O)oc3c(OC(C)C)c(C)c(O)c1c32 (stereo not given)', 'active'),
  ('CC(C)C/C(CC(=O)CCC(=O)Nc1ccccc1[N+](=O)[O-])=N\NC(=O)c1cc2ccccc2cc1O', 'inactive'),
  ('COc1cc(=O)oc(/C=C/C=C/C=C/C(C)=C\C2(C)OC(C)C(C)(O)C2O)c1C (stereo not given)', 'inactive');

Qu. Fill in: this test's call for C[C@@H]1CC[C@@]2(C)[C@H](C)/C(=C\COC(=O)/C=C/c3ccc(O)c(O)c3)CC[C@@]12C [NAVICULYL CAFFEATE] is ___
Ans. inactive

----------
System: K562
Test: NCI tumour cell line growth inhibition, 48 h
Calls of active or inactive are those of the source. Cut-off read from the data, not from the text of the source: active = GI50 up to about 1.1 µM and inactive = higher.
Thanks in advance; please answer with one of these: active, inactive

Here's what some known entries look like.
INSERT INTO results (compound, qualitative_label) VALUES
  ('CC(=O)Oc1ccc(-c2cc3ccccc3oc2=O)cc1OC(C)=O', 'inactive'),
  ('O=C1C(c2ccc([N+](=O)[O-])cc2)=[N+]([O-])c2ccccc21', 'inactive'),
  ('COc1ccc(CCN2COc3ccc4ccc(=O)oc4c3C2)cc1OC', 'inactive'),
  ('COc1cc(/C=C2\C[C@H]3[C@@H]4CC=C5C[C@@H](N6CCCC6)CC[C@]5(C)[C@H]4CC[C@]3(C)[C@H]2O)cc(OC)c1OC', 'inactive'),
  ('O=c1c(C(c2ccco2)c2c(O)oc3ccccc3c2=O)c(O)oc2ccccc12', 'inactive');

Turning now to a further record.
Qu. Fill in: this test's call for `CCCCOC(=O)NC(=O)c1cn(C2CCCCC2)c(=O)[nH]c1=O` is ___
Ans. inactive
